# protocol-text: Luciferase activity of purified RLuc mutants (light output integrated over 10 s, luminometer)
# Assay type: biochemical
# test-settings: coelenterazine-n; relative to native enzyme
recorded-metric: Activity (relative to RLuc) n

For orientation, consider the following solved cases.
# molecule, Activity (relative to RLuc) n
records = [
    ("E44G/C124A: RLuc mutant E44G/C124A (protein) MASKVYDPEQRKRMITGPQWWARCKQMNVLDSFINYYDSEKHAGNAVIFLHGNAASSYLWRHVVPHIEPVARCIIPDLIGMGKSGKSGNGSYRLLDHYKYLTAWFELLNLPKKIIFVGHDWGAALAFHYSYEHQDKIKAIVHAESVVDVIESWDEWPDIEEDIALIKSEEGEKMVLENNFFVETMLPSKIMRKLEPEEFAAYLEPFKEKGEVRRPTLSWPREIPLVKGGKPDVVQIVRNYNAYLRASDDLPKMFIESDPGFFSNAIVEGAKKFPNTEFVKVKGLHFSQEDAPDEMGKYIKSFVERVLKNEQ", 0.66),
    ("A54G/A55G/C124A: RLuc mutant A54G/A55G/C124A (protein) MASKVYDPEQRKRMITGPQWWARCKQMNVLDSFINYYDSEKHAENAVIFLHGNGGSSYLWRHVVPHIEPVARCIIPDLIGMGKSGKSGNGSYRLLDHYKYLTAWFELLNLPKKIIFVGHDWGAALAFHYSYEHQDKIKAIVHAESVVDVIESWDEWPDIEEDIALIKSEEGEKMVLENNFFVETMLPSKIMRKLEPEEFAAYLEPFKEKGEVRRPTLSWPREIPLVKGGKPDVVQIVRNYNAYLRASDDLPKMFIESDPGFFSNAIVEGAKKFPNTEFVKVKGLHFSQEDAPDEMGKYIKSFVERVLKNEQ", 0.15),
    ("A54P/C124A: RLuc mutant A54P/C124A (protein) MASKVYDPEQRKRMITGPQWWARCKQMNVLDSFINYYDSEKHAENAVIFLHGNPASSYLWRHVVPHIEPVARCIIPDLIGMGKSGKSGNGSYRLLDHYKYLTAWFELLNLPKKIIFVGHDWGAALAFHYSYEHQDKIKAIVHAESVVDVIESWDEWPDIEEDIALIKSEEGEKMVLENNFFVETMLPSKIMRKLEPEEFAAYLEPFKEKGEVRRPTLSWPREIPLVKGGKPDVVQIVRNYNAYLRASDDLPKMFIESDPGFFSNAIVEGAKKFPNTEFVKVKGLHFSQEDAPDEMGKYIKSFVERVLKNEQ", 0.08),
]

Next up:
Could you share which Activity (relative to RLuc) n value was measured for F33R/I34M/C124A: RLuc mutant F33R/I34M/C124A (protein) MASKVYDPEQRKRMITGPQWWARCKQMNVLDSRMNYYDSEKHAENAVIFLHGNAASSYLWRHVVPHIEPVARCIIPDLIGMGKSGKSGNGSYRLLDHYKYLTAWFELLNLPKKIIFVGHDWGAALAFHYSYEHQDKIKAIVHAESVVDVIESWDEWPDIEEDIALIKSEEGEKMVLENNFFVETMLPSKIMRKLEPEEFAAYLEPFKEKGEVRRPTLSWPREIPLVKGGKPDVVQIVRNYNAYLRASDDLPKMFIESDPGFFSNAIVEGAKKFPNTEFVKVKGLHFSQEDAPDEMGKYIKSFVERVLKNEQ ?
0.12
